# Tested on: RAW264.7 mouse macrophages
# EXPERIMENT SUMMARY: Cytotoxicity (MTT) in RAW264.7 macrophages
# Type: cell-based
# RUN CONDITIONS: Table 3; 33 μM
ATTRIBUTE MEASURED: % viability RAW 264.7 (33 μM) (%)
Entry rule: numbers only, all in %.

// worked examples, % viability RAW 264.7 (33 μM) included
Cc1ccc2nc(NC(=O)C3CCN(S(=O)(=O)c4ccc(F)cc4)CC3)sc2c1 [VU486] : 89
Cc1cc2nc(NC(=O)C3CCN(S(=O)(=O)c4ccc(F)cc4)CC3)sc2cc1C [VU536] : 114

For record Cn1cc(S(=O)(=O)N2CCC(C(=O)Nc3nc4ccccc4s3)CC2)cn1 [VU227] the listed % viability RAW 264.7 (33 μM) is 106

For record Cc1cccc2sc(NC(=O)C3CCN(S(=O)(=O)c4cccnc4)CC3)nc12 [VU211] the listed % viability RAW 264.7 (33 μM) is 88

For record Cc1ccc(S(=O)(=O)N2CCC(C(=O)Nc3nc4c(C)cc(C)cc4s3)CC2)cc1 [VU575] the listed % viability RAW 264.7 (33 μM) is 85

Every entry's value here was drawn from patent US20250250265A1.
